// provenance: IntAct's records for PubMed 10433268

B1: Disks large-associated protein 1 (Rattus norvegicus (Rat)), P97836-5 (parent)
chain: MIDLFKAEWVSSVCVQVSRNGRTDQVWVPQDEWTGYTPRGKDDEIPCRRMRSGSYIKAMGDEDSGDSDTSPKPSPKVAARRESYLKATQPSLTELTTLKISNEHSPKLQIRSHSYLRAVSEVSINRSLDSLDPAGLLTSPKFRSRNESYMRAMSTISQVSEMEVNGQFESVCESVFSELESQAVEALDLPMPGCFRMRSHSYVRAIEKGCSQDDECVSLRSSSPPRTTTTVRTIQSSTGVIKLSSAVEAQSSTESAQDAYMDGQGQRGDMISQSGLSNSTESLDSMKALTAAIEAANAQIHGPASQHMGSNAAAVTTTTTIATVTTEDRKKDFKKNRCLSIGIQVDDAEESEKMAESKTSSKFQSVGVQVEEEKCFRRFTRSNSVTTAVQADLDFHDNLENSLESIEDNSCPGPMARQFSRDASTSTVSIQGSGNHYHACAADDDFDTDFDPSILPPPDPWIDSITEDPLEAVQRSVCHRDGHWFLKLLQAERDRMEGWCKQMEREERENNLPEDILGKIRTAVGSAQLLMAQKFYQFRELCEENLNPNAHPRPTSQDLAGFWDMLQLSIENISMKFDELHQLKANNWKQMDPLDKKERRAPPPVPKKPAKGPAPLIRERSLESSQRQEARKRLMAAKRAASVRQNSATESAESIEIYIPEAQTRL

variants of: B1; details: with Shank1, Q9WV48-4
Readout label: effect of a mutation on the interaction

// known answers, use as guide
Query: // effect of a mutation on the interaction lookup, key: T664S
Result: decreasing interaction

Query: // effect of a mutation on the interaction lookup, key: L666A
Result: disrupting interaction

Query: // effect of a mutation on the interaction lookup, key: T664A
Result: disrupting interaction

Query: // effect of a mutation on the interaction lookup, key: R665D
Result: decreasing interaction

New cases:
Query: // effect of a mutation on the interaction lookup, key: L666V
Result: decreasing interaction
